Where do these numbers come from? They come from ChEMBL document CHEMBL5291721.

AC50 for assorted molecules
Target: 5-hydroxytryptamine receptor 2A (Homo sapiens); further: assay procedure not described here
Sequence (P28223 whole entry): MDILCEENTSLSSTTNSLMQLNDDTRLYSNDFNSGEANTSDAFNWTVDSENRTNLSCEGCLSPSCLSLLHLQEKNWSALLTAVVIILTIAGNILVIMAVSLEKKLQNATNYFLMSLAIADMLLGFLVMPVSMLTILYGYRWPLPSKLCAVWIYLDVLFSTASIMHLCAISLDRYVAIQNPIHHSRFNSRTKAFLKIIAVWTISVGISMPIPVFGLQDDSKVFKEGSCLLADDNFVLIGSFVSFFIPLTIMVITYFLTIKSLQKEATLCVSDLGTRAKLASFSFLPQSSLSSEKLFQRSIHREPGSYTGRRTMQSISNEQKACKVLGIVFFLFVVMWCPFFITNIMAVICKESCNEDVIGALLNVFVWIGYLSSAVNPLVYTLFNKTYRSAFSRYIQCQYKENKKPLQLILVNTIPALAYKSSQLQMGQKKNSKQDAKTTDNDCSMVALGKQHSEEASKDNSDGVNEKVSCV
Assay type: functional, cell-based

Consider the following illustrative entries.
CCCOC(C(=O)OC1CCN(C)CC1)(c1ccccc1)c1ccccc1 | > 30 µM
C[C@@H]1C[C@H]2[C@@H]3C[C@H](F)C4=CC(=O)C=C[C@]4(C)[C@@]3(F)[C@@H](O)C[C@]2(C)[C@H]1C(=O)CO | > 30 µM
CNC(=O)c1cc(Oc2ccc(NC(=O)Nc3ccc(Cl)c(C(F)(F)F)c3)c(F)c2)ccn1 | > 30 µM

Give 5-hydroxytryptamine receptor 2A (Homo sapiens) AC50 for the following molecule: `CCSc1ccc2c(c1)N(CCCN1CCN(C)CC1)c1ccccc1S2` > 30 µM

Give 5-hydroxytryptamine receptor 2A (Homo sapiens) AC50 for the following molecule: `COc1cc2nccc(Oc3ccc(NC(=O)Nc4cc(C)on4)c(Cl)c3)c2cc1OC` > 30 µM

Give 5-hydroxytryptamine receptor 2A (Homo sapiens) AC50 for the following molecule: CC1(C)C(C=C(Cl)Cl)C1C(=O)OCc1cccc(Oc2ccccc2)c1 (stereo not drawn) > 10 µM

Give 5-hydroxytryptamine receptor 2A (Homo sapiens) AC50 for the following molecule: `CCCCC1(CC)C(=O)NC(=O)NC1=O` > 30 µM

Give 5-hydroxytryptamine receptor 2A (Homo sapiens) AC50 for the following molecule: CCCN(CC)C(CC)C(=O)Nc1c(C)cccc1C (stereo not drawn) > 30 µM
